System: Clostridium difficile ATCC700057
Assay: MIC by microdilution, Clostridium difficile
Format: cell-based
Conditions: strain ATCC70057 [sic] (Tables 1-2) / ATCC700057 (Tables 3-10), in duplicate
READOUT_LABEL: Minimal Inhibitory Concentration (MIC)

{"COMPOUND": "CC[P+](CC)(CC)[Au-][c]1nn[nH]c1-c1cccc(C(=O)O)c1 [TMB13]", "TEST_VALUE": "≤0.06"}
{"COMPOUND": "CC[P+](CC)(CC)[Au-][c]1nn[nH]c1-c1cccc(C(=O)NC(C(=O)NC2C(=O)N3C2SC(C)(C)C3C(=O)O)c2ccccc2)c1 (stereo not shown) [TMB12]", "TEST_VALUE": "≤0.06"}
{"COMPOUND": "CC[P+](CC)(CC)[Au-][c]1nn[nH]c1-c1cn[nH]c1 [TMB31]", "TEST_VALUE": "≤0.06"}
{"COMPOUND": "CC[P+](CC)(CC)[Au-][c]1nn[nH]c1-c1ccc(C(=O)NC(C(=O)O)c2ccccc2)cc1 (stereo not shown) [TMB23]", "TEST_VALUE": "≤0.06"}
{"COMPOUND": "CC[P+](CC)(CC)[Au-][c]1nn[nH]c1-c1c(C)noc1C [TMB43]", "TEST_VALUE": 0.25}
{"COMPOUND": "CC[P+](CC)(CC)[Au-][c]1nn[nH]c1CCC(=O)NC(C(=O)NC1C(=O)N2C1SC(C)(C)C2C(=O)O)c1ccccc1 (stereo not shown) [TMB4]", "TEST_VALUE": "≤0.06-0.125"}
{"COMPOUND": "CC[P+](CC)(CC)[Au-][c]1nn[nH]c1COC(=O)N[C@H](CC(=O)O)C(=O)O [TMB29]", "TEST_VALUE": "≤0.06"}
{"COMPOUND": "CC1(C)S[C@@H]2[C@H](NC(=O)[C@H](NC(=O)CCc3cnnn3Cc3ccccc3)c3ccccc3)C(=O)N2[C@H]1C(=O)O [TMB6]", "TEST_VALUE": "2-4"}
{"COMPOUND": "CC[P+](CC)(CC)[Au-][c]1nn[nH]c1-c1cccc(C(=O)NC(C(=O)O)c2ccccc2)c1 (stereo not shown) [TMB20]", "TEST_VALUE": "≤0.06"}
{"COMPOUND": "CC[P+](CC)(CC)[Au-][c]1nn[nH]c1COC(=O)NC(C(=O)O)c1ccccc1 (stereo not shown) [TMB1]", "TEST_VALUE": "≤0.06"}
{"COMPOUND": "CC1(C)S[C@@H]2[C@H](NC(=O)[C@H](NC(=O)OCc3cnn[nH]3)c3ccccc3)C(=O)N2[C@H]1C(=O)O [TMB5]", "TEST_VALUE": 4}
{"COMPOUND": "CC[P+](CC)(CC)[Au-][c]1nn[nH]c1C1CCC(C(=O)O)CC1 (stereo not shown) [TMB25]", "TEST_VALUE": "≤0.06"}
{"COMPOUND": "CC1(C)S[C@@H]2[C@H](NC(=O)[C@H](NC(=O)CCc3cn(Cc4ccccc4)nn3)c3ccccc3)C(=O)N2[C@H]1C(=O)O [TMB9]", "TEST_VALUE": "2-4"}
{"COMPOUND": "CC[P+](CC)(CC)[Au-][c]1nn[nH]c1COC(=O)NC(C(=O)NC)c1ccccc1 (stereo not shown) [TMB8]", "TEST_VALUE": "≤0.06-0.125"}
{"COMPOUND": "CC[P+](CC)(CC)[Au-][c]1nn[nH]c1COC(=O)N[C@@H](CCCNC(=N)N[N+](=O)[O-])C(=O)O [TMB35]", "TEST_VALUE": 0.125}
{"COMPOUND": "CC[P+](CC)(CC)[Au-][c]1nn[nH]c1CN1CCN(C)CC1 [TMB33]", "TEST_VALUE": "≤0.06"}
